B1: library; a variant is named by its letters at N, in order (parent)
chain: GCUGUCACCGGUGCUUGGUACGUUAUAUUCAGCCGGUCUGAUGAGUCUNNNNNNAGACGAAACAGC

Variants of: B1
methodSummary: normalized RNA/DNA level without ligand (relative to sTRSVctl = 100) (log10 (% of sTRSVctl)); HEK293T overexpressing SLC46A1; higher = less ribozyme self-cleavage, higher mRNA level
measurementConditions: without (6R,S)-folinic acid; ligand present: no
observedProperty: normalized RNA/DNA level without ligand (log10)

# sequenceInput, observedValue
rows = [
    ("GCUGUCACCGGUGCUUGGUACGUUAUAUUCAGCCGGUCUGAUGAGUCUCCGCGAAGACGAAACAGC [CCGCGA]", 2.06),
    ("GCUGUCACCGGUGCUUGGUACGUUAUAUUCAGCCGGUCUGAUGAGUCUUAAGGUAGACGAAACAGC [UAAGGU]", 1.84),
    ("GCUGUCACCGGUGCUUGGUACGUUAUAUUCAGCCGGUCUGAUGAGUCUCUAACCAGACGAAACAGC [CUAACC]", 2.01),
    ("GCUGUCACCGGUGCUUGGUACGUUAUAUUCAGCCGGUCUGAUGAGUCUUCGCCUAGACGAAACAGC [UCGCCU]", 2.08),
    ("GCUGUCACCGGUGCUUGGUACGUUAUAUUCAGCCGGUCUGAUGAGUCUCAUAGUAGACGAAACAGC [CAUAGU]", 2),
    ("GCUGUCACCGGUGCUUGGUACGUUAUAUUCAGCCGGUCUGAUGAGUCUGUAAGAAGACGAAACAGC [GUAAGA]", 2),
    ("GCUGUCACCGGUGCUUGGUACGUUAUAUUCAGCCGGUCUGAUGAGUCUACGUUAAGACGAAACAGC [ACGUUA]", 1.99),
    ("GCUGUCACCGGUGCUUGGUACGUUAUAUUCAGCCGGUCUGAUGAGUCUUGUUUUAGACGAAACAGC [UGUUUU]", 1.99),
    ("GCUGUCACCGGUGCUUGGUACGUUAUAUUCAGCCGGUCUGAUGAGUCUAGUCAUAGACGAAACAGC [AGUCAU]", 2),
    ("GCUGUCACCGGUGCUUGGUACGUUAUAUUCAGCCGGUCUGAUGAGUCUUAACCCAGACGAAACAGC [UAACCC]", 1.99),
    ("GCUGUCACCGGUGCUUGGUACGUUAUAUUCAGCCGGUCUGAUGAGUCUGAUUGUAGACGAAACAGC [GAUUGU]", 2),
    ("GCUGUCACCGGUGCUUGGUACGUUAUAUUCAGCCGGUCUGAUGAGUCUACAUGGAGACGAAACAGC [ACAUGG]", 1.92),
    ("GCUGUCACCGGUGCUUGGUACGUUAUAUUCAGCCGGUCUGAUGAGUCUGAAUUUAGACGAAACAGC [GAAUUU]", 2.03),
    ("GCUGUCACCGGUGCUUGGUACGUUAUAUUCAGCCGGUCUGAUGAGUCUGGGGGCAGACGAAACAGC [GGGGGC]", 1.94),
    ("GCUGUCACCGGUGCUUGGUACGUUAUAUUCAGCCGGUCUGAUGAGUCUCCAUAUAGACGAAACAGC [CCAUAU]", 1.96),
    ("GCUGUCACCGGUGCUUGGUACGUUAUAUUCAGCCGGUCUGAUGAGUCUGGAACGAGACGAAACAGC [GGAACG]", 2),
    ("GCUGUCACCGGUGCUUGGUACGUUAUAUUCAGCCGGUCUGAUGAGUCUCAUAUAAGACGAAACAGC [CAUAUA]", 1.95),
    ("GCUGUCACCGGUGCUUGGUACGUUAUAUUCAGCCGGUCUGAUGAGUCUCAAUUGAGACGAAACAGC [CAAUUG]", 2.01),
]
